test: Cytotoxicity in the SRE.L assay determined by CellTiter-Fluor; assay type: cell-based; settings: human, cells of the SRE.L assay
pIC50: −log10 of the molar value.
measured.metric: pIC50

compound: COC(=O)c1ccc2c(c1)NC(=O)/C2=C(\Nc1ccc(N(C)C(=O)CN2CCN(C)CC2)cc1)c1ccccc1 [Nintedanib]
recorded.result: > 4.52

====

system: Rho/MRTF/SRF-mediated gene transcription (SRE.L); experiment: Gα12-stimulated SRE.L luciferase reporter assay in PC3 cells; format: cell-based; conditions: Homo sapiens, PC-3, read-out: SRE.L IC50
pIC50: −log10 of the molar value.
measured.metric: pIC50

compound: CNC(=O)CCSc1nnc(-c2ccc(Cl)cc2Cl)o1
system: Rho/MRTF/SRF-mediated gene transcription (SRE.L)
measured.metric: pIC50
censoring.qualifier: <
recorded.result: 4.00

compound: O=C(O)CCCCSc1nnc(-c2ccc(Cl)cc2Cl)o1
system: Rho/MRTF/SRF-mediated gene transcription (SRE.L)
measured.metric: pIC50
censoring.qualifier: =
recorded.result: 7.37

compound: O=C(O)CSc1nnc(-c2ccc(Cl)cc2Cl)o1
system: Rho/MRTF/SRF-mediated gene transcription (SRE.L)
measured.metric: pIC50
censoring.qualifier: <
recorded.result: 4.00

compound: O=C(O)CCCSc1nnc(-c2ccc(C3CC3)cc2Cl)o1 [19f]
system: Rho/MRTF/SRF-mediated gene transcription (SRE.L)
measured.metric: pIC50
censoring.qualifier: =
recorded.result: 11.92

This collection of values is drawn from paper PMC6590913.
